Target: T1, Murine serum albumin (MSA) (mouse, UniProt P07724 25-608)
T1 construct: Bought protein (Sigma); also called murine albumin; mouse albumin
Assay: ELISA on coated murine albumin, anti-human Fc HRP, A650, one site-total binding fit
Overview of recorded Bmax for various binders
quantity.measured: Bmax (A650)

>>> observed_measurement("4A01v3-4 (Fc fusion, also called Hz4A01v3-4; not shown: Human Fc carrier and its linker) VHH: EVQLVESGGGEVQPGGSLRLSCAASGFAFSTSGMSWVRQAPGKGLEWVSTISDDARIIRYAESVKGRFTISRDNAKNTLYLQMNSLRAEDTAVYYCATYRAGSRIGSYEDYYRGQGTLVTVKP")
1.4
>>> observed_measurement("4A01v3-5 (Fc fusion, also called Hz4A01v3-5; not shown: Human Fc carrier and its linker) VHH: EVQLVESGGGEVQPGGSLRLSCAASGFAFSTSGMVWYRQAPGKGLEWVSTISDDARIIRYAESVKGRFTISRDNAKNTLYLQMNSLRAEDTAVYYCATYRAGSRIGSYEDYYRGQGTLVTVKP")
1.31
>>> observed_measurement("4A01v3-7 (Fc fusion, also called Hz4A01v3-7; not shown: Human Fc carrier and its linker) VHH: EVQLVESGGGEVQPGGSLRLSCAASGFAFSTSGMVWVRQAPGKGLEWVSTISDDARIIRYAESVKGRFTISRDNAKNTVYLQMNSLRAEDTAVYYCATYRAGSRIGSYEDYYRGQGTLVTVKP")
1.32
>>> observed_measurement("4A01v3-1 (Fc fusion, not shown: a dimerising Fc or GST; small tags and cut ends, also called Hz4A01v3-1) VHH: EVQLVESGGGEVQPGGSLRLSCAASGFTFSTSGMVWVRQAPGKGLEWVSTISDDARIIRYAESVKGRFTISRDNAKNTLYLQMNSLRAEDTAVYYCATYRAGSRIGSYEDYYRGQGTLVTVKP")
1.29
>>> observed_measurement("4A01v3-3 (Fc fusion, not shown: a dimerising Fc or GST; small tags and cut ends, also called Hz4A01v3-3) VHH: EVQLVESGGGEVQPGGSLRLSCAASGFAFSTSGMAWVRQAPGKGLEWVSTISDDARIIRYAESVKGRFTISRDNAKNTLYLQMNSLRAEDTAVYYCATYRAGSRIGSYEDYYRGQGTLVTVKP")
1.35
>>> observed_measurement("4A01v9 (Fc fusion, not shown: a dimerising Fc or GST; small tags and cut ends, also called Hz4A01v9) VHH: EVQLVESGGGEVQPGGSLRLSCAASGFAFSTSGMVWVRQAPGKGLEWVSTISDDTRIIRYAESVKGRFTISRDNAKNTLYLQMNSLRAEDTAVYYCATYRAGSRIGSYEDYYRGQGTLVTVKP")
1.3
>>> observed_measurement("4A01v1 (Fc fusion, also called Hz4A01v1; not shown: Human Fc carrier and its linker) VHH: EVQLVESGGGEVQPGGSLRLSCAASGFAFSTSGMVWVRQAPGKGLEWVSTISDDSRIIRYAESVKGRFTISRDNAKNTLYLQMNSLRAEDTAVYYCATYRAGSRIGSYEDYYRGQGTLVTVKP")
1.35
>>> observed_measurement("4A01-NNT-hFc (Fc fusion, Monomeric sdAb-Fc fusion (Fc S364N, Y407N, K409T = NNT); also called 1m4A01; anti-albumin sdAb 4A01) QVQLQESGGGLVQPGGSLRLSCAASGFAFSTSGMVWVRQATGKGLEWVSTISDDSRIIRYADSVNGRFTISRDNAENTLYLLMNSLKPEDTAVYYCATYRAGSRIGSYEDYYRGQGTQVTVSSGGPSVFLFPPKPKDTLMISRTPEVTCVVVDVSHEDPEVKFNWYVDGVEVHNAKTKPREEQYNSTYRVVSVLTVLHQDWLNGKEYKCKVSNKALPAPIEKTISKAKGQPREPQVYTLPPSRDELTKNQVNLTCLVKGFYPSDIAVEWESNGQPENNYKTTPPVLDSDGSFFLNSTLTVDKSRWQQGNVFSCSVMHEALHNHYTQKSLSLSPG")
1.26
